molecular target: Cytochrome P450 2D6 (Homo sapiens) (UniProt P10635); test: qHTS Assay for Inhibitors and Substrates of Cytochrome P450 2D6 (AID 891); conditions: recombinant CYP2D6, luciferin-ME EGE luminescence; series mostly up to 11.4 µM; further: nearly all actives have a fitted effect of over 60% in size
Sequence (P10635 whole entry, looked up): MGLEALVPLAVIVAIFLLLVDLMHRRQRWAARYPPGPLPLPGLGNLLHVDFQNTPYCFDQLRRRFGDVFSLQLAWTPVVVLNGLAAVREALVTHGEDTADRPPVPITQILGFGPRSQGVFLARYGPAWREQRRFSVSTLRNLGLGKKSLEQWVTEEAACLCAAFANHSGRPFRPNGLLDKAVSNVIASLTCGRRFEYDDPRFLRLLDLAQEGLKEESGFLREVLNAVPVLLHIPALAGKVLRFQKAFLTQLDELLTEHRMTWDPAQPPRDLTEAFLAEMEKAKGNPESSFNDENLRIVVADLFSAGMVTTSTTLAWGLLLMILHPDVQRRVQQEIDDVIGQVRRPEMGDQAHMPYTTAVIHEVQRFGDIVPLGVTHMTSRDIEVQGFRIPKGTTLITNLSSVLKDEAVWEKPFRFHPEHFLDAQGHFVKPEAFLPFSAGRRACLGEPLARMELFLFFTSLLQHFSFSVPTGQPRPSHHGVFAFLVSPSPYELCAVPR
Records with an inconclusive call do not appear. Calls of active or inactive are those of the source. The call rests on the fitted dose curve; in most records, active means well fitted inhibition curve with a large enough effect; inconclusive means small, poorly fitted or top-dose-only effect; inactive means no such curve, though single readings can be large or run the other way.
Labels: active, inactive

# LINE NOTATION, GROUP LABEL
rows = [
    ("C[C@H]1C[C@@H]2[C@H]3CCC4=CC(=O)C=C[C@@]4(C)[C@]3(Cl)[C@@H](Cl)C[C@]2(C)[C@]1(O)C(=O)COP(=O)(O)O", "inactive"),
    ("CC(=O)OCC(=O)[C@@]1(O)CC[C@@H]2[C@@H]3CCC4=CC(=O)CC[C@@]4(C)[C@H]3C(=O)C[C@]21C", "inactive"),
    ("Nc1ccc(S(=O)(=O)NCCS(=O)(=O)O)cc1", "inactive"),
    ("O=C(O)CC1(C(=O)O)CCCCC1", "inactive"),
    ("CC[C@@]1([N+](=O)[O-])C[C@H]2C=C[C@@H]1C2", "inactive"),
    ("Clc1ccc(CN2CCCN(Cc3ccc(Cl)cc3)C2c2cc3ccccc3c3ccccc23)cc1", "active"),
    ("CC[C@H](C)C(=O)O[C@@H]1CCC=C2C=C[C@H](C)[C@@H](CC[C@H]3C[C@@H](O)CC(=O)O3)[C@H]21", "inactive"),
    ("c1ccc(CN2CC[C@@H](CNc3ncnc4ccccc34)C2)cc1", "active"),
    ("c1ccc2c(CN3CCN(Cc4c[nH]c5ccccc45)CC3)c[nH]c2c1", "active"),
    ("C[N+](C)(N)CCC[N+](C)(C)N", "inactive"),
    ("CC[C@H]1CN(C)[C@H]2Cc3c([nH]c4ccccc34)C(=O)C[C@H]1[C@H]2C(=O)OC", "inactive"),
    ("Nc1nc(N)nc(CCCCc2nc(N)nc(N)n2)n1", "inactive"),
    ("C[C@@]12C(=O)OC(=O)[C@@]1(C)[C@H]1CC[C@@H]2O1", "inactive"),
    ("N[C@@H](C(=O)O)[C@@H]1C[C@H]1C(=O)O", "inactive"),
    ("CSC1(SC2=NCCN2)SC2(NCCN2)S1", "active"),
    ("c1ccc(C(CCN2CC3CCC(CC3)C2)c2ccccc2)cc1", "active"),
    ("CSc1nc(N)c2ncn([C@@H]3O[C@@H](COP(=O)(O)OP(=O)(O)OP(=O)(O)O)[C@@H](O)[C@H]3O)c2n1", "inactive"),
    ("c1ccc(SCCc2ccncc2)cc1", "active"),
    ("Nc1cccc2nsnc12", "inactive"),
    ("S[C@@H]1CCCN(Cc2ccccc2)C1", "active"),
    ("O[C@@H](c1cc(-c2ccc(Cl)cc2)nc2ccccc12)[C@@H]1CCCCN1", "active"),
    ("C[C@@H]1CCCN(C[C@@H](O)CN2CCCc3ccccc32)C1", "active"),
]

* * *

molecular target: Mitogen-activated protein kinase 10 (Mus musculus) (UniProt Q61831); assay: JNK3 AlphaScreen Assay (AID 530); conditions: JNK3 lysate, c-Jun phosphorylation; series mostly up to 11.4 µM;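 further: kinase came from lysate of stimulated human HepG2 cells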
Inconclusive results are not listed. The source made the active and inactive calls. Calls follow the shape of the dose curve; as a rule, active = well fitted curve in either direction with a large enough effect (not every such curve was filed as active); inconclusive = small, poorly fitted or top-dose-only effect, or another doubt; inactive = flat fitted curve, though single readings scatter. Residues, ends and D or L forms follow the SMILES beside them.
Outcome codes: active, inactive

# COMPOUND, GROUP LABEL
measured = [
    ("CC(C)(C)NC[C@@H](O)c1ccc(O)c(CO)n1", "inactive"),
    ("S=C(NC1CCCCC1)NC1CCCCC1", "inactive"),
    ("O=C(O)CC(CC(=O)O)n1cccc1", "inactive"),
    ("N[C@H](C(=O)O)[C@@H](O)c1cnc[nH]1", "inactive"),
    ("O=P(O)(CCP(=O)(O)c1ccccc1)c1ccccc1", "inactive"),
    ("Clc1ccc(CSCCc2ccncc2)cc1Cl", "inactive"),
    ("COc1cccc(Nc2ncc3nc(-c4ccccc4)c(=O)n(C4CC4)c3n2)c1", "inactive"),
    ("CCOC(=O)c1c(C)c(C)n2c1NC(=O)C2", "inactive"),
    ("CN(C)Cc1ccc(C(C)(C)C)cc1-c1cc(C(C)(C)C)ccc1CN(C)C", "inactive"),
    ("C(=C/c1ccccc1)/CN1CCN(C(c2ccccc2)c2ccccc2)CC1", "inactive"),
    ("O=C(O)CSc1nc2ccccc2[nH]1", "inactive"),
    ("CN(Cc1cc(Br)cc(Br)c1O)Cc1c(O)ccc2ccccc12", "inactive"),
    ("O=CC(=O)c1ccccc1", "inactive"),
    ("O=[N+]([O-])c1ccccc1N=Nc1c(O)[nH]c2ccc(S(=O)(=O)O)cc12", "inactive"),
    ("CCCCNc1nc(SC)nc2nc[nH]c12", "inactive"),
    ("COc1nc(Cl)nc(Cl)c1Cl (tested in a mixture with another compound)", "inactive"),
    ("Nc1nc2c(c(=O)[nH]1)N[C@H](CCNc1ccc(C(=O)O)cc1)CN2", "inactive"),
    ("Oc1c(Cl)cc(C(c2cc(Cl)c(O)c(Cl)c2)C(c2cc(Cl)c(O)c(Cl)c2)c2cc(Cl)c(O)c(Cl)c2)cc1Cl", "inactive"),
    ("O=C1c2ccccc2-c2ccc(NC(=O)[C@H]3CCCC[C@@H]3C(=O)O)cc21", "inactive"),
    ("CC(=O)Nc1ccc2c(c1)C(=Nc1ccc(C(=O)O)cc1)c1ccccc1-2", "inactive"),
    ("CC1=N[C@@](C)(COC(=O)[C@]2(C)N[C@](C)(CO)CO2)COC1=O", "inactive"),
    ("COC(=O)[C@@H]1O[C@@H](SCCN)[C@@H](O)[C@H](O)[C@H]1O", "inactive"),
    ("N/N=C1/c2ccccc2N[C@H]1OC(=O)Nc1cccc(Cl)c1", "inactive"),
    ("Cc1nc2ccccc2nc1N1CCCC1", "inactive"),
    ("NCC(=O)N[C@H](CO)C(=O)O (HELM PEPTIDE1{G.[dS]}$$$$V2.0)", "inactive"),
    ("Cn1c(=S)c2[nH]c(SCc3cccnc3)nc2n(C)c1=O", "inactive"),
    ("O=C(O)C12CC3(C(=O)O)CC(C(=O)O)(CC(C(=O)O)(C1)C3=O)C2=O", "inactive"),
    ("O=C(O)/C=C\\C(=O)Nc1ccccn1", "inactive"),
    ("NC(N)=N/N=C\\c1ccc(C2CCNCC2)cc1", "inactive"),
    ("Nc1nc(=O)c2[nH]cnc2n1O", "inactive"),
    ("O=C1Nc2ccccc2C1=Nc1cccc2ncccc12", "inactive"),
    ("CCCS(=O)(=O)O", "inactive"),
    ("Cc1nc2cnc(N3CCOCC3)nc2n(Cc2cccs2)c1=O", "inactive"),
    ("c1ccc(CCNCc2ccco2)nc1", "inactive"),
    ("CN(C)CCCN=C(N)N", "inactive"),
    ("COc1cccc2[nH]c(-c3ccccn3)nc12", "inactive"),
    ("O=C(O)CN1C(=O)O[C@@H](c2ccccc2)C1=O", "inactive"),
    ("O[C@H]([C@H](O)[C@@H](O)c1nc2ccccc2[nH]1)[C@@H](O)c1nc2ccccc2[nH]1", "inactive"),
    ("N[C@@]1(C(=O)O)CCC[C@@H]1C(=O)O", "inactive"),
    ("CC(CCN)(CCN)[N+](=O)[O-]", "inactive"),
    ("CN(C)CCN(c1ccccn1)c1ccccn1", "inactive"),
    ("Nc1c2c(nc3ccccc13)CCC[C@H]2O", "inactive"),
    ("C[C@@H](CCC[C@@H]1SC[C@H]2NC(=O)N[C@H]12)C(=O)O", "active"),
    ("CN(C)Cc1ccc(-c2cc3onc(-c4ccccc4)c3c(=O)n2C)cc1", "inactive"),
    ("c1ccc2c(c1)nnn2CN1CCOCC1", "inactive"),
    ("N#Cc1c(NC(=O)CCC(=O)O)ccc2ccccc12", "inactive"),
    ("CC(=NC1CCCCC1)c1ccccc1O", "inactive"),
    ("O[C@H](COc1ccccc1)CN1CCCCC1", "inactive"),
    ("C[C@]12CC[C@H]3c4ccc(O)cc4CC[C@@H]3[C@H]1CC[C@@H]2OC(=O)CCc1ccccc1", "inactive"),
]
